B1: OR4K15 (parent)
chain: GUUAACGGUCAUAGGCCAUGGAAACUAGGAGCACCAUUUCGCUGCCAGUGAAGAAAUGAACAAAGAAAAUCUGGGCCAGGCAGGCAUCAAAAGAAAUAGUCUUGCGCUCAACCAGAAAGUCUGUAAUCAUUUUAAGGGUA

# Variants of: B1
# Assay Text: self-cleavage, relative activity (ratio to wild type); higher = more cleavage; in vitro, sequencing; the parent is a self-cleaving ribozyme
Classification field: enter 1 for self-cleavage values not below 0.8, -1 for values below it.

- C46U A117G: 1
- U19C U43A: 1
- A116U U133C: -1
- A69G U87A: 1
- U57C A89U: -1
- G7A U132C: 1
- G50A A63G: 1
- A23G A114G: -1
- A30U U49C: 1
- A64U U70C: 1
- A33U U127C: 1
- G84A A86G: 1
- A55G U120C: 1
- C16G A59U: 1
- A5G U120G: -1
- A22G A89C: 1
- U2C U122C: -1
- C40U A126U: 1
- A24G A91G: -1
- C6U A66G: 1
- G8A U103G: -1
- A23G A59G: 1
- A56G A78G: -1
- U39C U72A: -1
- A33G U57C: -1
- U72A A117G: -1
- A59G G93A: 1
- A86U U87C: 1
- U102C U122C: 1
- A52G A95G: 1
- A18G C42G: 1
- A33G U131C: -1
- A22G A54G: 1
- C40U A95G: 1
- U9C U100C: 1
- A23G G53A: 1
- A63G G123A: 1
- A63G U87A: 1
- G73A U108C: -1
- A30G C71U: -1
- A95G U122A: 1
- A114C A125G: -1
- A55G A90G: -1
- A18G U108C: -1
- U37C C46U: 1
